Overview of recorded %Inh for various molecules
Test system: HIPK2
Conditions: concentration: 1 μM, replicates: in singlicate; n = 1
measure name: %Inh (%)

Cc1csc(-c2nc(Nc3ccncc3)c3ccccc3n2)n1 [GW869640]; 23
Cc1ccc(-c2cc(-c3c[nH]nc3-c3ccccn3)ccn2)cc1 [GW684088]; 0
CN1C(=O)C(Nc2ccc(Cl)c(C(=O)O)c2)=C(c2ccc(Cl)cc2)C1=O [SB-404290]; 8
Cc1c(Cn2ccn3c(=O)cc(N4CCOCC4)nc23)cccc1C(F)(F)F [GSK2289044]; 0
O=C(Nc1ccc2c(c1)OCO2)NC1CCN(c2ccnc(Nc3ccc(F)cc3)n2)C1 (centres unmarked) [GSK1379724]; 0

====

Reported pKd values for a set of compounds
Test system: VPS34;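 also: kd values determined as follow-up on hits from a single-replicate KINOMEscan panel screen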
Construct: gene PIK3C3
pKd: −log10 of the molar value.
measure name: pKd

Cc1nnc(-c2ccc3occ(-c4ccc(S(C)=O)cc4)c3c2)[nH]1 (stereo not shown); 7.21
CS(=O)(=O)c1ccc(-c2c(-c3ncn[nH]3)sc(N3CCOCC3)c2C#N)cc1; 6.96
O=c1cc(N2CCOCC2)nc2n(Cc3cccc(Cl)c3Cl)ccn12; 8.68
Cc1cccc(-c2nc(-c3ccc(S(C)(=O)=O)cc3)sc2-c2ccnc(NCCc3ccccc3)c2)c1; 5.08

====

Test system: INSR
Conditions: concentration: 1 μM, replicates: in singlicate; n = 1
measure name: %Inh (%)

NC(=O)c1nnc2ccccc2c1N; 29
Nc1ncnc2[nH]c(-c3ccccc3)nc12 [AH5015]; 0
Cc1c(O)cccc1Nc1ccnc2ccc(C(F)(F)F)cc12.Cl [GW466413]; 0
COc1cc2ncn(-c3cc(OCC4CCCO4)c(C(N)=O)s3)c2cc1OC (centres unmarked) [GSK204607]; 0
COc1cc2ncnc(Nc3ccc4nc(-c5ccccc5)[nH]c4c3)c2cc1OC.Cl [GW282450]; 94.3

====

Entries and their measured %Inh follow.
Tested on: ZAP70
Conditions: concentration: 1 μM, replicates: in singlicate; n = 1
measure name: %Inh (%)

COc1ccc(Nc2nccc(-c3cccc(NC(=O)c4cc5cc(F)ccc5[nH]4)c3)n2)cc1; 0
Cc1cc(N2Cc3ccccc3C2)nc(Nc2ccc(S(=O)(=O)N3CCOCC3)cc2)n1.Cl; 0
COc1ccc(CNC(=O)NC2CCN(c3ccnc(Nc4cc(OC)c(OC)c(OC)c4)n3)C2)cc1 (stereo not drawn); 3
CCn1c(-c2ccccn2)nc2cnccc21; 6
Cn1cncc1-c1ccc2ncnc(Nc3ccc(OCc4ccccc4)cc3)c2c1; 0
COc1ccccc1-c1ccc2c(NC(=O)C3CC3)n[nH]c2n1; 13

====

Measured %Inh of individual entries
Test system: PKAC-beta
Construct: gene PRKACB
Conditions: concentration: 1 μM, replicates: in singlicate; n = 1
measure name: %Inh (%)

Cc1ccc(NC(=O)Nc2cc(C(C)(C)C)nn2-c2ccccc2)cc1; 0
Cc1c(Cn2ccn3c(=O)cc(N4CCOCC4)nc23)cccc1C(F)(F)F; 0
COc1ccc(Nc2nccc(-c3cccc(NC(=O)c4cc5cc(F)ccc5[nH]4)c3)n2)cc1; 21
COc1cccc(NC(=O)NC2CCN(c3ccnc(Nc4ccc(F)cc4)n3)C2)c1 (centres unmarked); 0
COc1cccc(-c2cc(-c3c[nH]nc3-c3ccccn3)ccn2)c1; 0

====

List of %Inh values.
Tested on: CAMK2B
Conditions: concentration: 1 μM, replicates: in singlicate; n = 1
measure name: %Inh

CSc1nn2c(=O)cc(N3CCOCC3)nc2n1Cc1cccc(C(F)(F)F)c1C; 0%
Cc1cccc(-c2nc(Nc3ccc4[nH]ncc4c3)c3ccccc3n2)n1; 3%
Cl.Oc1ccc(-c2nc(-c3ccccc3)[nH]c2-c2ccncc2)cc1; 0%
